MEASUREMENT PROTOCOL: Liver microsomal stability, mouse and human, UDPGA
Format: in vitro ADME
ASSAY CONTEXT: mouse and human, liver microsomes with alamethicin, pH 7.5

# STRUCTURE NOTATION, half-life at 4.6 μM
data = [
    ("COc1cc(F)ccc1C1(NCc2cccc(CC3CCN(C)CC3)c2)CCCC1", "> 2 h"),
    ("CN1CCC(Cc2cccc(CNC3(c4ccc(F)cc4)CCCC3)c2)CC1", "> 2 h"),
    ("COc1cc(C2(NCc3cccc(CC4CCN(C)CC4)c3)CCCC2)ccc1F", "> 2 h"),
    ("CN1CC2(CC(Cc3cccc(CNC4(c5ccc(F)cc5)CCCC4)c3)C2)C1", "> 2 h"),
    ("CN1CCC(Cc2cc(CNC3(c4ccc(F)cc4)CCCC3)ccc2O)CC1", "> 2 h"),
    ("CN1CCC(Cc2cc(CNC3(c4ccc(F)cc4)CCCC3)ccc2F)CC1", "> 2 h"),
    ("CN1CCC(Cc2ccc(O)c(CNC3(c4ccc(F)cc4)CCCC3)c2)CC1", "> 2 h"),
    ("CN1CCC(Cc2cc(CNC3(c4ccc(F)cc4)CCCC3)c(F)cc2F)CC1", "> 2 h"),
    ("Fc1ccc(C2(NCc3ccc(F)c(CC4CCNCC4)c3)CCCC2)cc1", "> 2 h"),
    ("COc1cc(F)ccc1C1(NCc2ccc(F)c(CC3CCN(C)CC3)c2)CCCC1", "> 2 h"),
    ("CN1CCC(Cc2cccc(CNC3(c4ccc(F)cc4O)CCCC3)c2)CC1", "> 2 h"),
    ("CN1CCC(Cc2ccc(F)c(CNC3(c4ccc(F)cc4)CCCC3)c2)CC1", "> 2 h"),
    ("CN1CCC(Cc2cccc(CNC3(c4ccc(F)c(F)c4)CCCC3)c2)CC1", "> 2 h"),
]

// data source = paper PMC10788905
